system: C. elegans strain CB5586; test: C. elegans phenotypic lifespan screening (Kaplan-Meier, Log-Rank, Fisher's Exact Test); format: in vivo; settings: 0.1 mg/ml; DMSO control 13.23
Reported restricted mean lifespan, # of Days values are given for each entry in this list.
// units = days; emit number, no label

Problem: Find the recorded restricted mean lifespan, # of Days belonging to O=C(O)CCCCC1CCSS1 (racemic) and report it.
Solution: 14.89

Problem: What do we get for Oc1ccc(/C=C/c2cc(O)cc(O)c2)cc1 [Resveratrol, 3,5,4′-trihydroxy-trans-stilbene] ?
Solution: 13.57

Problem: What do we get for C[C@@H]1O[C@@H](OC[C@H]2O[C@@H](Oc3c(-c4ccc(O)c(O)c4)oc4cc(O)cc(O)c4c3=O)[C@H](O)[C@@H](O)[C@@H]2O)[C@H](O)[C@H](O)[C@H]1O [N346, rutin hydrate] ?
Solution: 12.03

Problem: What do we get for COc1ccc([C@@H]2CC(=O)c3c(O)cc(O[C@@H]4O[C@H](CO[C@@H]5O[C@@H](C)[C@H](O)[C@@H](O)[C@H]5O)[C@@H](O)[C@H](O)[C@H]4O)cc3O2)cc1O ?
Solution: 14.55

Kindly review the next compound as well.
Problem: Find the recorded restricted mean lifespan, # of Days belonging to O=c1c(O)c(-c2ccc(O)c(O)c2)oc2cc(O)cc(O)c12 and report it.
Solution: 12.17
